# Tested on: MOLT-4
# Protocol summary: NCI tumour cell line growth inhibition, 48 h
Active and inactive are the calls of the source. Cut-off read from the data, not from the text of the source: active = GI50 up to about 1.1 µM and inactive = higher.
Select the correct class. Options are 1 (active), 0 (inactive) and nothing else.

Task: Hey, what did the test say about CC(C)c1ccc(/C=C2\CSCC3=C2N=C2SCC(=O)N2C3c2ccc(C(C)C)cc2)cc1 (centres undefined) ?
Output: 0

Task: Hey, what did the test say about O=c1c2cc(Br)ccc2ncn1COCc1ccccc1 ?
Output: 0

Task: Hey, what did the test say about CCOC(=O)/C(C(=O)Nc1cccc(Cl)c1)=C(/N)N1CCOCC1 ?
Output: 0

Task: Hey, what did the test say about CC(C)C1OC(=O)C(Cc2ccccc2)N(C)C(=O)C(C(C)C)OC(=O)C(Cc2ccccc2)N(C)C(=O)C(C(C)C)OC(=O)C(Cc2ccccc2)N(C)C1=O (centres undefined) ?
Output: 1

Task: Hey, what did the test say about Cc1cnoc1/N=C1\C=C(Nc2oncc2C)C(=O)c2ccccc21 ?
Output: 0

Task: Hey, what did the test say about O=[N+]([O-])c1ccc(NN=C2CN3CCN(C2)c2ccccc23)c([N+](=O)[O-])c1 ?
Output: 0

Task: Hey, what did the test say about CSc1ccc(-c2cc(-c3nc4ccccc4[nH]3)nc(N)c2C#N)cc1 ?
Output: 0

Task: Hey, what did the test say about Cc1nnc(N)nc1/C=C\c1ccc(Cl)cc1Cl ?
Output: 0

Task: Hey, what did the test say about CCOc1ccc(N/C(Cl)=C(Cl)\C(=C(\Nc2ccc(OCC)cc2)n2nnc3ccccc32)[N+](=O)[O-])cc1 ?
Output: 0
